# Tested on: MDA-MB-468
# ASSAY: Cytotoxicity against human MDA-MB-468 cells assessed as reduction in cell viability after 48 hrs by MTT assay
# Assay type: functional, cell-based
# CONDITION DESCRIPTION: MDA-MB-468, 48 h
METRIC NAME: IC50 (µM)
Express your answer in µM, writing the number without its unit.

Field: example entries. Status: answers known.
Find the recorded IC50 belonging to Cc1cc(OCC(=O)Nc2nc(-c3ccc(Br)cc3)cs2)ccc1Cl and report it.
52.1

Another molecule: O=C(COc1ccc(F)cc1F)Nc1nc(-c2ccc(Br)cc2)cs1
44.2

***
Find the recorded IC50 belonging to Cc1ccc(-c2csc(NC(=O)COc3ccc(Br)cc3)n2)cc1 and report it.
40.9

Another molecule: Cc1ccc(-c2csc(NC(=O)COc3ccccc3)n2)cc1
54.9

Another molecule: Cc1ccc(-c2csc(NC(=O)COc3ccc(Cl)c(C)c3)n2)cc1
54.2

Another molecule: O=c1[nH]cc(F)c(=O)[nH]1
44.9

Another molecule: O=C(COc1ccc(Cl)cc1)Nc1nc(-c2ccc(Br)cc2)cs1
52.1

Another molecule: O=C(COc1ccccc1)Nc1nc(-c2ccc(Br)cc2)cs1
37.2

Another molecule: O=C(COc1ccc(F)cc1)Nc1nc(-c2ccc(Br)cc2)cs1
52.1

Another molecule: Cc1ccccc1OCC(=O)Nc1nc(-c2ccc(Br)cc2)cs1
44.9

Another molecule: Cc1ccc(-c2csc(NC(=O)COc3ccc(F)cc3)n2)cc1
24.9

Another molecule: Cc1ccc(OCC(=O)Nc2nc(-c3ccc(Cl)cc3)cs2)cc1
50.9

* * *

# Tested on: MDA-MB-468
# ASSAY: Cytotoxicity against human MDA-MB-468 cells assessed as reduction in cell viability after 48 hrs by MTT assay
# Type: functional, cell-based
# CONDITION DESCRIPTION: MDA-MB-468, 48 h
METRIC NAME: IC50 (µM)
Express your answer in µM, writing the number without its unit.

Find the recorded IC50 belonging to Cc1cc(Cl)ccc1OCC(=O)Nc1nc(-c2ccc(Cl)cc2)cs1 and report it.
52.4

Another compound: CC(C)c1ccccc1OCC(=O)Nc1nc(-c2ccc(Br)cc2)cs1
50.9

Another compound: O=C(COc1ccc(Br)cc1)Nc1nc(-c2ccc(Cl)cc2)cs1
45.1

Another compound: Cc1ccc(-c2csc(NC(=O)COc3ccccc3C)n2)cc1
52.1

Another compound: O=C(COc1ccc(Cl)cc1)Nc1nc(-c2ccc(Cl)cc2)cs1
55.5

Another compound: O=C(COc1ccc(Br)cc1)Nc1nc(-c2ccc(Br)cc2)cs1
41.7

Another compound: Cc1ccc(OCC(=O)Nc2nc(-c3ccc(Br)cc3)cs2)cc1
44.9

Another compound: CC(C)c1ccccc1OCC(=O)Nc1nc(-c2ccc(Cl)cc2)cs1
53.2

Another compound: O=C(COc1ccccc1)Nc1nc(-c2ccc(Cl)cc2)cs1
55.3

Another compound: Cc1ccc(-c2csc(NC(=O)COc3ccccc3C(C)C)n2)cc1
55.5

Another compound: CC(C)c1ccc(OCC(=O)Nc2nc(-c3ccc(Cl)cc3)cs2)c(C(C)C)c1
41.7

* * *

# System: MDA-MB-468
# ASSAY: Cytotoxicity against human MDA-MB-468 cells assessed as reduction in cell viability after 48 hrs by MTT assay
# Type: functional, cell-based
# CONDITION DESCRIPTION: MDA-MB-468, 48 h
Reported IC50 values follow for various molecules
Reply with the number and its unit after it.

Field: example entries. Status: answers known.
Find the recorded IC50 belonging to Cc1ccc(-c2csc(NC(=O)COc3ccc(F)cc3F)n2)cc1 and report it.
10.5 µM

Another molecule: Cc1ccccc1OCC(=O)Nc1nc(-c2ccc(Cl)cc2)cs1
40.1 µM

Another molecule: O=C(COc1ccc(F)cc1)Nc1nc(-c2ccc(Cl)cc2)cs1
42.1 µM

Another molecule: O=C(COc1ccc(F)cc1F)Nc1nc(-c2ccc(Cl)cc2)cs1
32.9 µM

Another molecule: Cc1ccc(-c2csc(NC(=O)COc3ccc(Cl)cc3)n2)cc1
44.2 µM

With those in mind, consider the next molecule.
Find the recorded IC50 belonging to Cc1ccc(OCC(=O)Nc2nc(-c3ccc(C)cc3)cs2)cc1 and report it.
37.2 µM
